Kindly supply the reported Maximal binding (MFI at 10 µg/mL) values for the records listed here.
tgt: human CD74, naturally expressed on cells (Raji, Daudi, M4A4, NCI-H747 cells; human tonsil tissue) (human) (UniProt P04233)
procedureSummary: FACS on Daudi cells, 10 µg/mL; mean of three experiments
Just the number in MFI, nothing appended.

stdin: Output Maximal binding (MFI at 10 µg/mL) of HuMab-CD74-006-vcMMAE (antibody, IgG1, V domains shown, drug-linker vcMMAE alkylated to the cysteines of the reduced antibody (DAR 4.0), Antibody-drug conjugate of HuMab-CD74-006 (IgG1,kappa); also called vcMMAE-conjugated HuMab-CD74-006) VH: QVQLVESGGGVVQPGRSLRLSCAASGFTFSSYAMHWVRQAPGKGLEWVAVISYDGSIKYYADSVKGRFTISRDNSKNTLYLQMNSLRVEDTAVFYCARGREITSQNIVILLDYWGQGTLVTVTS VL: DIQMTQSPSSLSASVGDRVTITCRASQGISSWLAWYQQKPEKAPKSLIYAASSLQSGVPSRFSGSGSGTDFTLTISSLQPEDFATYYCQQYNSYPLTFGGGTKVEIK
stdout: 3280

stdin: // fetch Maximal binding (MFI at 10 µg/mL) given entry HuMab-CD74-006 (antibody, human IgG1, V domains shown, Human IgG1,kappa antibody produced transiently in HEK-293F cells; also called antibody 006) VH: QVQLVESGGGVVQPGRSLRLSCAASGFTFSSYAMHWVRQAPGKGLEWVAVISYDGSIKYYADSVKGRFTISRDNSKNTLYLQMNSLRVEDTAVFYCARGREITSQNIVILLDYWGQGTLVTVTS VL: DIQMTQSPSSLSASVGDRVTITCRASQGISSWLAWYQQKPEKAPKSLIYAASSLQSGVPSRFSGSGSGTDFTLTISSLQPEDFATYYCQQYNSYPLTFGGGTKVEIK
stdout: 4600

stdin: Provide measured Maximal binding (MFI at 10 µg/mL) value, entry: HuMab-CD74-005 (antibody, human IgG1, V domains shown, Human IgG1,kappa; produced transiently in HEK-293F cells; also called antibody 005) VH: QVQLVESGGGVVQPGRSLRLSCAASGFTFSSYAMHWVRQAPGKGLEWVAVISYDGSNKYYADSVKGRFTISRDNSKNTLYLQMNSLRAEDTAVYYCASGRYYGSGSYSSYFDYWGQGTLVTVSS VL: DIQMTQSPSSLSASVGDRVTITCRASQGISSWLAWFQQKPEKAPKSLIYAASSLQSGVPSRFSGSGSGTDFTLTISSLQPEDFATYYCQQYNSYPLTFGGGTKVEIK
stdout: 2780
